// data source = patent US8153808B2

- Target System: P2X7 (UniProt Q99572)
- Experiment Summary: pIC50 values for P2X7 (Table 1)
- Type: cell-based
Overview of reported pIC50 P2X7 across a group of molecules:

Would you please look over these solved cases?
Molecule	pIC50 P2X7
COc1cc(Br)c(CC(=O)N2C=CC(=O)CC2c2cccc(F)c2)cc1OC (centres unmarked)	6.815
COc1cc(CC(=O)N2C=CC(=O)CC2c2ccccc2)c(C(F)(F)F)cc1OC (centres unmarked)	5.395
COc1ccc(CC(=O)N2C=CC(=O)CC2c2ccccc2)c(Br)c1 (centres unmarked)	5.685
COc1cc(F)c(CC(=O)N2C=CC(=O)C[C@H]2c2ccc(F)cc2)cc1OC	6.4
COc1cc(Br)c(CC(=O)N2C=CC(=O)CC2c2cccc(Cl)c2)cc1OC (centres unmarked)	6.28
O=C1C=CN(C(=O)Cc2cc(OC(F)F)c(OC(F)F)cc2Br)[C@H](c2ccc(F)cc2)C1	5.895
COc1cc(I)c(CC(=O)N2C=CC(=O)CC2c2ccccc2C)cc1OC (centres unmarked)	5.963
COc1ccc(CC(=O)N2C=CC(=O)CC2c2ccc(F)cc2)c(OC)c1 (centres unmarked)	5.843
COc1cc(Br)c(CC(=O)N2C=CC(=O)CC2c2cccc(C#N)c2)cc1OC (centres unmarked)	5.45
COc1cc(Br)c(CC(=O)N2C=CC(=O)CC2c2cccc(C)c2)cc1OC (centres unmarked)	6.425

Q) Provide only the value of recorded pIC50 P2X7 for `CCOc1cc(Br)c(CC(=O)N2C=CC(=O)C[C@H]2c2ccc(F)cc2)cc1OC`
A) 6.535

----------
- Target System: UniProt:Q99572
- Experiment Summary: pIC50 values for P2X7 (Table 1)
- Type: cell-based
Overview of reported pIC50 P2X7 across a group of compounds:
Answer as a number with no unit attached.

Compound	pIC50 P2X7
COc1cc(I)c(CC(=O)N2C=CC(=O)CC2c2ccc(F)cc2)cc1OC (stereo not shown)	6.97
COc1cc(Br)c(CC(=O)N2C=CC(=O)CC2c2ccc(C)cc2)cc1OC (stereo not shown)	5.325
Cc1cc(F)c(OCCO)cc1CC(=O)N1C=CC(=O)C[C@H]1c1ccc(F)cc1	7.12

API: the following record is the query input.
Q) Provide only the value of recorded pIC50 P2X7 for `COc1cc(CC(=O)N2C=CC(=O)C[C@H]2c2ccc(F)cc2)c(Br)cc1OCC1CC1`
A) 6.08

----------
- Target System: UniProtKB Q99572
- Experiment Summary: pIC50 values for P2X7 (Table 1)
- Type: cell-based
Overview of reported pIC50 P2X7 across a group of molecules:
Answer as a number with no unit attached.

Would you please look over these solved cases?
Molecule	Measured Result
CCOc1cc(CC(=O)N2C=CC(=O)C[C@H]2c2ccc(F)cc2)c(Br)cc1OC	7.17
Cc1cc(Br)c(CC(=O)N2C=CC(=O)CC2c2ccc(F)cc2)cc1O (stereo not shown)	6.18
COc1cc(F)c(CC(=O)N2C=CC(=O)C[C@H]2c2cccc(F)c2)cc1OC	6.55

Q) Provide only the value of recorded pIC50 P2X7 for `COc1cc(Br)c(CC(=O)N2C=CC(=O)C[C@H]2c2ccccc2)cc1OC`
A) 7.22

----------
- Target System: UniProt Q99572
- Experiment Summary: pIC50 values for P2X7 (Table 1)
- Assay type: cell-based
Given measured pIC50 P2X7, output 1 if it is greater than or equal to 7 and 0 if not.

Molecule	Cat
COc1ccc(OC)c(CC(=O)N2C=CC(=O)CC2c2ccc(F)cc2)c1 (stereo not drawn)	0
COc1cc(Br)c(CC(=O)N2C=CC(=O)CC2C(C)C)cc1OC (stereo not drawn)	0
COc1cc(CC(=O)N2C=CC(=O)CC2c2ccc(F)cc2)c(Br)cc1Cl (stereo not drawn)	0
COc1ccc(CC(=O)N2C=CC(=O)C[C@H]2c2ccc(F)cc2)cc1OC	0
COCCOc1cc(CC(=O)N2C=CC(=O)C[C@H]2c2ccc(F)cc2)c(Br)cc1F	1

Q) Exam item: decide whether the reported pIC50 P2X7 for `COc1cc(Br)c(CC(=O)N2C=CC(=O)C[C@H]2c2cccc(F)c2)cc1OC` is at least 7.
A) 1

Q) Exam item: decide whether the reported pIC50 P2X7 for `COc1cc(Cl)c(CC(=O)N2C=CC(=O)C[C@H]2c2ccc(F)cc2)cc1OC` is at least 7.
A) 1

Q) Exam item: decide whether the reported pIC50 P2X7 for `COc1cc(I)c(CC(=O)N2C=CC(=O)C[C@H]2c2ccccc2)cc1OC` is at least 7.
A) 1

----------
- Target System: P2X7 (UniProt Q99572)
- Experiment Summary: pIC50 values for P2X7 (Table 1)
- Type: cell-based
Given measured pIC50 P2X7, output Condition met if it is greater than or equal to 7 and Condition not met if not.

Previously resolved entries follow.
Compound	Target System	Cat
COc1cc(Br)c(CC(=O)N2C=CC(=O)CC2CC2CCCCC2)cc1OC (stereo not drawn) [Compound 34]	P2X7 (UniProt Q99572)	Condition not met
COc1cc(Br)c(CC(=O)N2C=CC(=O)C[C@H]2c2ccc(F)cc2)cc1OC(F)F [Compound 24]	P2X7 (UniProt Q99572)	Condition not met
COc1cc(Br)c(CC(=O)N2C=CC(=O)C[C@H]2c2ccc(F)cc2)cc1OC [Compound 19]	P2X7 (UniProt Q99572)	Condition met
O=C1C=CN(C(=O)Cc2cc(OCCO)c(F)cc2Br)[C@H](c2cccc(F)c2)C1 [Compound 50]	P2X7 (UniProt Q99572)	Condition met

Q) Exam item: decide whether the reported pIC50 P2X7 for COc1cc(Br)c(CC(=O)N2C=CC(=O)CC2C2CCCC2)cc1OC (stereo not drawn) [Compound 27] is at least 7.
A) Condition not met

----------
- Target System: P2X7 (UniProt Q99572)
- Experiment Summary: pIC50 values for P2X7 (Table 1)
- Assay type: cell-based
Experimental Readout: pIC50 P2X7
Answer as a number with no unit attached.

Molecule	Experimental Readout	Measured Result
COc1cc(Br)c(CC(=O)N2C=CC(=O)C[C@H]2c2ccc(F)cc2)cc1OCC1CC1	pIC50 P2X7	6.93

Q) Provide only the value of recorded pIC50 P2X7 for COc1cc(Cl)c(CC(=O)N2C=CC(=O)CC2c2ccccc2)cc1OC (stereo not shown)
A) 6.806

Q) Provide only the value of recorded pIC50 P2X7 for COc1ccc(Br)c(CC(=O)N2C=CC(=O)CC2c2ccccc2)c1 (stereo not shown)
A) 6.765

Q) Provide only the value of recorded pIC50 P2X7 for `COc1cc(CC(=O)N2C=CC(=O)C[C@H]2c2ccc(F)cc2)c(Br)cc1F`
A) 7.55

Q) Provide only the value of recorded pIC50 P2X7 for `COc1cc(Cl)c(CC(=O)N2C=CC(=O)C[C@H]2c2ccccc2)cc1OC`
A) 6.705

Q) Provide only the value of recorded pIC50 P2X7 for `COc1ccc(CC(=O)N2C=CC(=O)C[C@H]2c2cccc(F)c2)cc1OC`
A) 6.006

Q) Provide only the value of recorded pIC50 P2X7 for `O=C1C=CN(C(=O)Cc2cc(OCCO)c(F)cc2Br)[C@H](c2ccc(F)cc2)C1`
A) 7.31

Q) Provide only the value of recorded pIC50 P2X7 for COc1cc(Br)c(CC(=O)N2C=CC(=O)CC2c2ccc(F)cc2)cc1OC (stereo not shown)
A) 7.165

Q) Provide only the value of recorded pIC50 P2X7 for `COc1cc(CC(=O)N2C=CC(=O)C[C@H]2c2ccc(F)cc2)c(Br)cc1Cl`
A) 6.4

Q) Provide only the value of recorded pIC50 P2X7 for O=C1C=CN(C(=O)Cc2cc3c(cc2Br)OCCO3)C(c2ccccc2)C1 (stereo not shown)
A) 5.305
